Target: T1, TPP-3760, B7H3 long, human (R&D Systems 2318-B3/CF) (human, UniProt Q5ZPR3 27-461)
T1 construct: Bought protein; also called B7H3 (RnDSystems, 2318-B3-050/CF); human B7H3
T1 sequence: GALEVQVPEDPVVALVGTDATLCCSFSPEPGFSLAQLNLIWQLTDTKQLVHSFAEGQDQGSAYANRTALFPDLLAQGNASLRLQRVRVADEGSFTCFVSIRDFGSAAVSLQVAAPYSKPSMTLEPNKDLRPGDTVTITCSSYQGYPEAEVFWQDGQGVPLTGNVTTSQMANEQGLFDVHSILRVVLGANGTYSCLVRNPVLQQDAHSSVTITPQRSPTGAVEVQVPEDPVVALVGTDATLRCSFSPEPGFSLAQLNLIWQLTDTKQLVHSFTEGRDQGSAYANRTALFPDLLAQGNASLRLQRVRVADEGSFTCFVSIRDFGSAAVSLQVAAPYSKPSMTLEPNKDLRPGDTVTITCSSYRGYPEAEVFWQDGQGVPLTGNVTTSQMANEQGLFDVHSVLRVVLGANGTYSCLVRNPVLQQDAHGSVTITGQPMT
Test: ELISA, IgG captured on anti-human IgG Fc, antigen 37 ng/ml, anti-His HRP detection
Below, each entry is listed with its recorded Quotient signal (B7)/signal (buffer).
Note: the reply should be a number with no unit written.

If you can, please state the reported Quotient signal (B7)/signal (buffer) value of TPP-6499 (antibody, human IgG1, lambda, V domains shown) VH: EVQLLESGGGLVQPGGSLRLSCAASGFTFRDFYMNWIRQAPGKGLEWVSSISASGKYTYYADSVKGRFTISRDNSKNTLYLQMNSLRAEDTAVYYCAREWGYCTNDVCRNWFDPWGQGTLVTVSS VL: QSVLTQPPSASGTPGQRVTISCSGGYSNVGGNNVNWYQQLPGTAPKLLIYGNSNRPSGVPDRFSGSKSGTSASLAISGLRSEDEADYYCQSYDSSLSGSVFGGGTKLTVLG . 109

# lookup: Quotient signal (B7)/signal (buffer) of TPP-6502 (antibody, human IgG1, lambda, V domains shown) VH: EVQLLESGGGLVQPGGSLRLSCAASGFTFSTYGMHWVRQAPGKGLEWVSAISGSGGSTYYADSVKGRFTISRDNSKNTLYLQMNSLRAEDTAVYYCTRGYYYYGMDVWGQGTLVTVSS VL: QSVLTQPPSASGTPGQRVTISCSGGSSNIGSNPVNWYQQLPGTAPKLLIYGNSKRPSGVPDRFSGSKSGTSASLAISGLRSEDEADYYCQSYDSSLSGWVFGGGTKLTVLG 126

Reported Quotient signal (B7)/signal (buffer) for TPP-6515 (antibody, human IgG1, lambda, V domains shown) VH: EVQLLESGGGLVQPGGSLRLSCAASGFTFSSYGMHWVRQVPGKGLEWVSAISGSGGTTYYADSVKGRFTISRDNSKNTLYLQMNSLRAEDTAVYYCARGGYHFLFDYWGQGTLVTVSS VL: QSVLTQPPSASGTPGQRVTISCSGSSSNIGSNTVNWYQQLPGTAPKLLIYRNDQRLLGVPDRFSGSKSGTSASLAISGLRSEDEADYYCQSYDSSLSGWVFGGGTKLTVLG : what is it? 116

Please turn your attention to the following entry.
Quick one: Quotient signal (B7)/signal (buffer) of TPP-6501 (antibody, human IgG1, lambda, V domains shown) VH: EVQLLESGGGLVQPGGSLRLSCAASGFTFSSYGMHWVRQAPGKGLEWVSAISGSGGSTYYADSVKGRFTISRDNSKNTLYLQMNSLRAEDTAVYYCARGSNYLGMDVWGQGTLVTVSS VL: QSVLTQPPSASGTPGQRVTISCSGSSSNIGRNIVNWYQQLPGTAPKLLIYRSNQRPSGVPDRFSGSKSGTSASLAISGLRSEDEADYYCQTWGTGWVFGGGTKLTVLG ? 118
